biological target: African green monkey C5 (African green monkey); assay: cell-based or functional assay
measurement_label: IC50, inhibition of CDC of Daudi cells, 1.66% African Green monkey serum (nM)
Report as a plain number; the unit nM is understood.

H4H12168P (antibody, human IgG4, V domains shown, H4H: human IgG4 Fc with S108P hinge mutation) VH: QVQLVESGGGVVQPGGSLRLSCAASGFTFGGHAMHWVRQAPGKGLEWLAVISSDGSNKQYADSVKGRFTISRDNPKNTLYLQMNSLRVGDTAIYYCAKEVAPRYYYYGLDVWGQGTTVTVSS VL: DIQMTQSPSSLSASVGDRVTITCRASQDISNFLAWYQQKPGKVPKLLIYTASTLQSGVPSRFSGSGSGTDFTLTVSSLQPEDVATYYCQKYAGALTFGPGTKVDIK | 2
H4H12163P (antibody, human IgG4, V domains shown, H4H: human IgG4 Fc with S108P hinge mutation) VH: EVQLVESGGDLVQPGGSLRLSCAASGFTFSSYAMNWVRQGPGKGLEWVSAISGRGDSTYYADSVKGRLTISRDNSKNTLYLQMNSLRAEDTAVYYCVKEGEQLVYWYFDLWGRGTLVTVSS VL: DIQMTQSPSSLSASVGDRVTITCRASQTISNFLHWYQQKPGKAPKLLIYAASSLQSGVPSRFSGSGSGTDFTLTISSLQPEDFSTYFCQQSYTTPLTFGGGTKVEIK | 3.7

Attention now turns to another entry.
Quote IC50, inhibition of CDC of Daudi cells, 1.66% African Green monkey serum reported for H4H12167P (antibody, human IgG4, V domains shown, H4H: human IgG4 Fc with S108P hinge mutation) VH: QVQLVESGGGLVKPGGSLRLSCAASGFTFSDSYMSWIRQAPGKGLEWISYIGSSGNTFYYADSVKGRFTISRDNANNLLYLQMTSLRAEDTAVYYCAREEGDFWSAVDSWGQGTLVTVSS VL: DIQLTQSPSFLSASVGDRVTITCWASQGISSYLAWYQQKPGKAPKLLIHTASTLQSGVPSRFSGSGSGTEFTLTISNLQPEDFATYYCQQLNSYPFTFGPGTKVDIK please.
3.5

Origin of measurements: patent US20170355757A1
